- Test system: MPNST complex spheroid with HUVEC/MSC, growth, % test/control
- measurementDescription: Anticancer human tumor MPNST cell line growth inhibition [Asc];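 note: compounds left on spheroids for seven days before reading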
- assaySetup: second compound 0.316 µM; first compound 0.3 µM; stronger effect = lower value
Exam item: assign YES to entries whose viability, T/C is below 60% and NO to entries at or above 60%. Note that a value of exactly 60% receives NO.

Query: Strictly below 60%: is that where viability, T/C of NC(=O)C(=Cn1cnc(-c2cc(C(F)(F)F)cc(C(F)(F)F)c2)n1)c1cncnc1 + CNC(C)C(=O)NC1CN(S(=O)(=O)c2cccc(S(=O)(=O)N3CCC4CCC(C(=O)NC(c5ccccc5)c5ccccc5)N4C(=O)C(NC(=O)C(C)NC)C3)c2)CCC2CCC(C(=O)NC(c3ccccc3)c3ccccc3)N2C1=O sits?
Result: YES

Query: Strictly below 60%: is that where viability, T/C of Cc1nc(N2CCC3(CC2)COC(C)C3N)c(CO)nc1Sc1ccnc(N)c1Cl (stereo unspecified) + Cc1c(S(C)(=O)=O)c(-c2cc(F)cc(N3CCN(c4ccc(NS(=O)(=O)c5ccc(NC(CCN6CCC(C(=O)OCCCP(=O)(O)O)CC6)CSc6ccccc6)c(S(=O)(=O)C(F)(F)F)c5)cc4)CC3)c2)c(-c2ccc(Cl)cc2)n1C(C)C sits?
Result: NO

Query: Strictly below 60%: is that where viability, T/C of NC(=O)C(=Cn1cnc(-c2cc(C(F)(F)F)cc(C(F)(F)F)c2)n1)c1cncnc1 + Cc1c(S(C)(=O)=O)c(-c2cc(F)cc(N3CCN(c4ccc(NS(=O)(=O)c5ccc(NC(CCN6CCC(C(=O)OCCCP(=O)(O)O)CC6)CSc6ccccc6)c(S(=O)(=O)C(F)(F)F)c5)cc4)CC3)c2)c(-c2ccc(Cl)cc2)n1C(C)C sits?
Result: YES

Query: Strictly below 60%: is that where viability, T/C of Cc1nc(N2CCC3(CC2)COC(C)C3N)c(CO)nc1Sc1ccnc(N)c1Cl (stereo unspecified) + CNC(C)C(=O)NC1CN(S(=O)(=O)c2cccc(S(=O)(=O)N3CCC4CCC(C(=O)NC(c5ccccc5)c5ccccc5)N4C(=O)C(NC(=O)C(C)NC)C3)c2)CCC2CCC(C(=O)NC(c3ccccc3)c3ccccc3)N2C1=O sits?
Result: YES

Query: Strictly below 60%: is that where viability, T/C of CCN1C(C(=O)NC23CCC(C(=O)O)(CC2)CC3)C(c2cccc(Cl)c2F)C2(C(=O)Nc3cc(Cl)ccc32)C12CCCCC2 (stereo unspecified) + Cc1c(S(C)(=O)=O)c(-c2cc(F)cc(N3CCN(c4ccc(NS(=O)(=O)c5ccc(NC(CCN6CCC(C(=O)OCCCP(=O)(O)O)CC6)CSc6ccccc6)c(S(=O)(=O)C(F)(F)F)c5)cc4)CC3)c2)c(-c2ccc(Cl)cc2)n1C(C)C sits?
Result: NO

Query: Strictly below 60%: is that where viability, T/C of CCN1C(C(=O)NC23CCC(C(=O)O)(CC2)CC3)C(c2cccc(Cl)c2F)C2(C(=O)Nc3cc(Cl)ccc32)C12CCCCC2 (stereo unspecified) + CNC(C)C(=O)NC1CN(S(=O)(=O)c2cccc(S(=O)(=O)N3CCC4CCC(C(=O)NC(c5ccccc5)c5ccccc5)N4C(=O)C(NC(=O)C(C)NC)C3)c2)CCC2CCC(C(=O)NC(c3ccccc3)c3ccccc3)N2C1=O sits?
Result: NO

---

- Tested on: MPNST complex spheroid with HUVEC/MSC, growth, % test/control
- measurementDescription: Anticancer human tumor MPNST cell line growth inhibition [Asc];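 note: compounds left on spheroids for seven days before reading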
- assaySetup: second compound 3.16 µM; first compound 0.1 µM; stronger effect = lower value
testReadout: viability, T/C (%)
Use % as the unit, but write only the number.

Query: # return recorded viability, T/C for input CNC(C)C(=O)NC1CN(S(=O)(=O)c2cccc(S(=O)(=O)N3CCC4CCC(C(=O)NC(c5ccccc5)c5ccccc5)N4C(=O)C(NC(=O)C(C)NC)C3)c2)CCC2CCC(C(=O)NC(c3ccccc3)c3ccccc3)N2C1=O (configuration not stated) + Cc1c(S(C)(=O)=O)c(-c2cc(F)cc(N3CCN(c4ccc(NS(=O)(=O)c5ccc(NC(CCN6CCC(C(=O)OCCCP(=O)(O)O)CC6)CSc6ccccc6)c(S(=O)(=O)C(F)(F)F)c5)cc4)CC3)c2)c(-c2ccc(Cl)cc2)n1C(C)C
Result: 141

Query: # return recorded viability, T/C for input O=C(c1cc(Cc2n[nH]c(=O)c3ccccc23)ccc1F)N1CCN(C(=O)C2CC2)CC1 + Cc1c(S(C)(=O)=O)c(-c2cc(F)cc(N3CCN(c4ccc(NS(=O)(=O)c5ccc(NC(CCN6CCC(C(=O)OCCCP(=O)(O)O)CC6)CSc6ccccc6)c(S(=O)(=O)C(F)(F)F)c5)cc4)CC3)c2)c(-c2ccc(Cl)cc2)n1C(C)C
Result: 72.9

---

- Tested on: MPNST complex spheroid with HUVEC/MSC, growth, % test/control
- measurementDescription: Anticancer human tumor MPNST cell line growth inhibition [Asc];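 note: compounds left on spheroids for seven days before reading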
- assaySetup: curve of first compound; second compound 0.1 µM
pIC50: −log10 of the molar value.
Hi there, I'd appreciate the recorded pIC50 for every entry that follows.

Query: Look up MPNST complex spheroid with HUVEC/MSC, growth, % test/control data: pIC50 of Cc1nc(N2CCC3(CC2)COC(C)C3N)c(CO)nc1Sc1ccnc(N)c1Cl (centres undefined) + CNC(C)C(=O)NC1CN(S(=O)(=O)c2cccc(S(=O)(=O)N3CCC4CCC(C(=O)NC(c5ccccc5)c5ccccc5)N4C(=O)C(NC(=O)C(C)NC)C3)c2)CCC2CCC(C(=O)NC(c3ccccc3)c3ccccc3)N2C1=O , then report it.
Result: 6.80

Query: Look up MPNST complex spheroid with HUVEC/MSC, growth, % test/control data: pIC50 of CNC(C)C(=O)NC1CN(S(=O)(=O)c2cccc(S(=O)(=O)N3CCC4CCC(C(=O)NC(c5ccccc5)c5ccccc5)N4C(=O)C(NC(=O)C(C)NC)C3)c2)CCC2CCC(C(=O)NC(c3ccccc3)c3ccccc3)N2C1=O (centres undefined) + Cc1c(S(C)(=O)=O)c(-c2cc(F)cc(N3CCN(c4ccc(NS(=O)(=O)c5ccc(NC(CCN6CCC(C(=O)OCCCP(=O)(O)O)CC6)CSc6ccccc6)c(S(=O)(=O)C(F)(F)F)c5)cc4)CC3)c2)c(-c2ccc(Cl)cc2)n1C(C)C , then report it.
Result: < 6.00

Query: Look up MPNST complex spheroid with HUVEC/MSC, growth, % test/control data: pIC50 of C=CC(=O)N1CCN(c2nc(=O)n(-c3c(C)ccnc3C(C)C)c3nc(-c4c(O)cccc4F)c(F)cc23)C(C)C1 (centres undefined) + CNC(C)C(=O)NC1CN(S(=O)(=O)c2cccc(S(=O)(=O)N3CCC4CCC(C(=O)NC(c5ccccc5)c5ccccc5)N4C(=O)C(NC(=O)C(C)NC)C3)c2)CCC2CCC(C(=O)NC(c3ccccc3)c3ccccc3)N2C1=O , then report it.
Result: < 5.00

Query: Look up MPNST complex spheroid with HUVEC/MSC, growth, % test/control data: pIC50 of NC1CCC(NC2CC2c2ccccc2)CC1 (centres undefined) + Cc1c(S(C)(=O)=O)c(-c2cc(F)cc(N3CCN(c4ccc(NS(=O)(=O)c5ccc(NC(CCN6CCC(C(=O)OCCCP(=O)(O)O)CC6)CSc6ccccc6)c(S(=O)(=O)C(F)(F)F)c5)cc4)CC3)c2)c(-c2ccc(Cl)cc2)n1C(C)C , then report it.
Result: < 7.00

---

Hi there, I'd appreciate the recorded viability, T/C for every entry that follows.
- Test system: MPNST complex spheroid with HUVEC/MSC, growth, % test/control
- measurementDescription: Anticancer human tumor MPNST cell line growth inhibition [Asc];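 note: compounds left on spheroids for seven days before reading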
- assaySetup: second compound 0.1 µM; first compound 0.316 µM; stronger effect = lower value

Query: Look up MPNST complex spheroid with HUVEC/MSC, growth, % test/control data: viability, T/C of O=C(c1cc(Cc2n[nH]c(=O)c3ccccc23)ccc1F)N1CCN(C(=O)C2CC2)CC1 + Cc1c(S(C)(=O)=O)c(-c2cc(F)cc(N3CCN(c4ccc(NS(=O)(=O)c5ccc(NC(CCN6CCC(C(=O)OCCCP(=O)(O)O)CC6)CSc6ccccc6)c(S(=O)(=O)C(F)(F)F)c5)cc4)CC3)c2)c(-c2ccc(Cl)cc2)n1C(C)C , then report it.
Result: 68.3%

Query: Look up MPNST complex spheroid with HUVEC/MSC, growth, % test/control data: viability, T/C of CNC(C)C(=O)NC1CN(S(=O)(=O)c2cccc(S(=O)(=O)N3CCC4CCC(C(=O)NC(c5ccccc5)c5ccccc5)N4C(=O)C(NC(=O)C(C)NC)C3)c2)CCC2CCC(C(=O)NC(c3ccccc3)c3ccccc3)N2C1=O (stereo unspecified) + Cc1c(S(C)(=O)=O)c(-c2cc(F)cc(N3CCN(c4ccc(NS(=O)(=O)c5ccc(NC(CCN6CCC(C(=O)OCCCP(=O)(O)O)CC6)CSc6ccccc6)c(S(=O)(=O)C(F)(F)F)c5)cc4)CC3)c2)c(-c2ccc(Cl)cc2)n1C(C)C , then report it.
Result: 126%

Query: Look up MPNST complex spheroid with HUVEC/MSC, growth, % test/control data: viability, T/C of CCN1CCN(Cc2ccc(Nc3ncc(F)c(-c4cc(F)c5nc(C)n(C(C)C)c5c4)n3)nc2)CC1 + CNC(C)C(=O)NC1CN(S(=O)(=O)c2cccc(S(=O)(=O)N3CCC4CCC(C(=O)NC(c5ccccc5)c5ccccc5)N4C(=O)C(NC(=O)C(C)NC)C3)c2)CCC2CCC(C(=O)NC(c3ccccc3)c3ccccc3)N2C1=O , then report it.
Result: 60.7%

Query: Look up MPNST complex spheroid with HUVEC/MSC, growth, % test/control data: viability, T/C of C#Cc1c(F)ccc2cc(O)cc(-c3ncc4c(N5CC6CCC(C5)N6)nc(OCC56CCCN5CC(F)C6)nc4c3F)c12 (stereo unspecified) + CNC(C)C(=O)NC1CN(S(=O)(=O)c2cccc(S(=O)(=O)N3CCC4CCC(C(=O)NC(c5ccccc5)c5ccccc5)N4C(=O)C(NC(=O)C(C)NC)C3)c2)CCC2CCC(C(=O)NC(c3ccccc3)c3ccccc3)N2C1=O , then report it.
Result: 78.2%

Query: Look up MPNST complex spheroid with HUVEC/MSC, growth, % test/control data: viability, T/C of O=C(c1ccc(F)c(F)c1Nc1ccc(I)cc1F)N1CC(O)([C@@H]2CCCCN2)C1 + Cc1c(S(C)(=O)=O)c(-c2cc(F)cc(N3CCN(c4ccc(NS(=O)(=O)c5ccc(NC(CCN6CCC(C(=O)OCCCP(=O)(O)O)CC6)CSc6ccccc6)c(S(=O)(=O)C(F)(F)F)c5)cc4)CC3)c2)c(-c2ccc(Cl)cc2)n1C(C)C , then report it.
Result: 49%

Query: Look up MPNST complex spheroid with HUVEC/MSC, growth, % test/control data: viability, T/C of C=C(F)C(=O)N1CCN(c2nc(OCC3CCCN3C)nc3c2CCN(c2cccc4cccc(Cl)c24)C3)CC1CC#N (stereo unspecified) + Cc1c(S(C)(=O)=O)c(-c2cc(F)cc(N3CCN(c4ccc(NS(=O)(=O)c5ccc(NC(CCN6CCC(C(=O)OCCCP(=O)(O)O)CC6)CSc6ccccc6)c(S(=O)(=O)C(F)(F)F)c5)cc4)CC3)c2)c(-c2ccc(Cl)cc2)n1C(C)C , then report it.
Result: 69.8%
